Each recorded value in this set is attributed to ChEMBL document CHEMBL1201862.

Test system: HOP-92
test: NCI tumour cell line growth inhibition, 48 h
Active and inactive are the calls of the source. No stated cut-off is given here; in the data, active = GI50 up to about 1.1 µM and inactive = higher.
parameter: GI50

>>> datavalue("ClC1(c2ccccc2)c2ccc(Br)cc2-c2cc(Br)ccc21")
"15.6 µM (inactive)"
>>> datavalue("O=C(O)C1CCN(Cc2oc(CO)cc(=O)c2O)C1 (stereo not given)")
"> 100 µM (inactive)"
>>> datavalue("Cc1c2cccc-2ccc2c1[nH]c1ccccc12")
"2.83 µM (inactive)"
>>> datavalue("Oc1cc2c3c(c1)c1cc4c(cc1c[n+]3CC2)OCO4")
"15.2 µM (inactive)"
>>> datavalue("N#C[C@H](OC1OC(COC2OC(CO)C(O)C(O)C2O)C(O)C(O)C1O)c1ccccc1 (stereo not given in full)")
"2.5 µM (inactive)"
>>> datavalue("COc1cccc(NCC(=O)Nn2c(-c3ccccc3)nc3ccccc3c2=O)c1")
"49.3 µM (inactive)"
>>> datavalue("N#CCN1c2ccccc2CCC1Cl (stereo not given)")
"> 10 µM (inactive)"
>>> datavalue("O=C(CC1(O)C(=O)Nc2c(Cl)cc(Cl)cc21)c1ccc([N+](=O)[O-])cc1 (stereo not given)")
"24.3 µM (inactive)"
>>> datavalue("CC(=O)C(C(C)=O)[C@@H]1OC(C)(C)O[C@@H]1[C@H]1COC(C)(C)O1")
"> 100 µM (inactive)"
>>> datavalue("Nc1nc(-[n+]2ccc(-c3ccncc3)cc2)nc(Cl)c1Cl")
"23.8 µM (inactive)"
>>> datavalue("O=c1cccccc1NCCCCCCCCNc1cccccc1=O")
"22.9 µM (inactive)"
>>> datavalue("CC1=C2C(=CC(C)(C)[C@@H]2O)C(=O)[C@](C)(O)C12CC2")
"0.0193 µM (active)"
>>> datavalue("Cc1nc(-c2cc3c(ccc4ccccc43)oc2=O)cs1")
"30.2 µM (inactive)"
>>> datavalue("CN1CN(c2ccccc2)C2(CCNCC2)C1=O")
"> 100 µM (inactive)"
>>> datavalue("CCc1n[nH]c(=O)n1N=C(c1ccccc1)c1ccccc1")
"> 100 µM (inactive)"

###

Listing: GI50 of selected compounds
Tested on: MDA-N
test: NCI tumour cell line growth inhibition, 48 h
Activity calls are given as the source filed them. No stated cut-off is given here; in the data, active = GI50 up to about 1.1 µM and inactive = higher.
parameter: GI50

>>> datavalue("C1CSCCSCSCCS1")
"> 100 µM (inactive)"
>>> datavalue("C=CC1ON(Cc2ccccc2)CCc2cc(OC)c(OC)cc21 (stereo not drawn)")
"29 µM (inactive)"
>>> datavalue("O=C1C(Cl)C2(CC(/C=C/c3ccccc3)=NN2c2cccc(S(=O)(=O)O)c2)N1c1nc2ccccc2s1 (stereo not drawn)")
"24.2 µM (inactive)"

###

In this section, each of the molecules is paired with its reported GI50.
Tested on: BT-549
test: NCI tumour cell line growth inhibition, 48 h
Calls of active or inactive are those of the source. No stated cut-off is given here; in the data, active = GI50 up to about 1.1 µM and inactive = higher.
parameter: GI50

>>> datavalue("COc1c(C)c(C/C=C(\\C)CC/C=C(\\C)CCC=C(C)C)c(OC)c(OC)c1OC")
"> 100 µM (inactive)"
>>> datavalue("Cn1c(CC(O)c2nc3ccccc3n2C)nc2ccccc21 (stereo not given)")
"> 34.4 µM (inactive)"
>>> datavalue("COc1cc(=O)oc(/C=C/C=C/C=C/C(C)=C\\C2(C)OC(C)C(C)(O)C2O)c1C (stereo not given)")
"> 100 µM (inactive)"
>>> datavalue("CC(C)(C)OC(=O)N1C(OP(=O)(Oc2ccccc2)Oc2ccccc2)=COc2cccnc21")
"63.7 µM (inactive)"
>>> datavalue("COC(=O)c1ccc(-c2nc(C#N)c(N)o2)cc1")
"23.8 µM (inactive)"
